The reported measurements were obtained from patent US20150126519A1.

Listed below: pIC50 values for each entry.
biological target: M. smegmatis AddAB (Mycolicibacterium smegmatis, UniProt A0QTR9+A0QTS0); assay: Purified AddAB nuclease assay; details: purified enzyme; read-out: Nuclease IC50, M. smeg AddAB
Sequence (A0QTS0 entry or part of it): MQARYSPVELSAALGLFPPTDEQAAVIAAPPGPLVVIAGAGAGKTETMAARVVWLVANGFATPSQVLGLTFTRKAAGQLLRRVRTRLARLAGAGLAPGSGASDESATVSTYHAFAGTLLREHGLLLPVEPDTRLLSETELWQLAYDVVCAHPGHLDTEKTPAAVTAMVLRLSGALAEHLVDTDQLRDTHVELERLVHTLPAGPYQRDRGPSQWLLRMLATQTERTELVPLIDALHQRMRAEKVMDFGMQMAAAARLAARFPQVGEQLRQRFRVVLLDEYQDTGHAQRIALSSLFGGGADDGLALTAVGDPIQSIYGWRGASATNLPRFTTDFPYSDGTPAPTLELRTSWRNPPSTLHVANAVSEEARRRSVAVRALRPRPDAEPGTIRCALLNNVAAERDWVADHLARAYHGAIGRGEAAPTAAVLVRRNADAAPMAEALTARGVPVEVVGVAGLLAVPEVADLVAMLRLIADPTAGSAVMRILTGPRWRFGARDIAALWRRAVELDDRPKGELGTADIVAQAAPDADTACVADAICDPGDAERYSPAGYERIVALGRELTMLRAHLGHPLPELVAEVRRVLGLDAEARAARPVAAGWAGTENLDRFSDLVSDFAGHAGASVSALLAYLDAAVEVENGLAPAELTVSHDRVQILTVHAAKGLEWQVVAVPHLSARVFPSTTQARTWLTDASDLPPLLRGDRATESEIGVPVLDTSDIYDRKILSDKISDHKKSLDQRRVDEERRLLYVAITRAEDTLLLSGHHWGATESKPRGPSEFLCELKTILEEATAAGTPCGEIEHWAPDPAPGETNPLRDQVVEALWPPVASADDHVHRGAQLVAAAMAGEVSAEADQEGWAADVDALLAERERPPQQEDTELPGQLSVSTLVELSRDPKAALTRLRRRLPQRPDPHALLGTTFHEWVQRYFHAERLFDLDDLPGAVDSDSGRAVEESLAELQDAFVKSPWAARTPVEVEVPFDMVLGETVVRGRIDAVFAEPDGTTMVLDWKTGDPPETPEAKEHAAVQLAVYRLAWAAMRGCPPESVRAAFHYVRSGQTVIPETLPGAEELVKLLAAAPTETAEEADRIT
Sequence (A0QTR9 entry or part of it): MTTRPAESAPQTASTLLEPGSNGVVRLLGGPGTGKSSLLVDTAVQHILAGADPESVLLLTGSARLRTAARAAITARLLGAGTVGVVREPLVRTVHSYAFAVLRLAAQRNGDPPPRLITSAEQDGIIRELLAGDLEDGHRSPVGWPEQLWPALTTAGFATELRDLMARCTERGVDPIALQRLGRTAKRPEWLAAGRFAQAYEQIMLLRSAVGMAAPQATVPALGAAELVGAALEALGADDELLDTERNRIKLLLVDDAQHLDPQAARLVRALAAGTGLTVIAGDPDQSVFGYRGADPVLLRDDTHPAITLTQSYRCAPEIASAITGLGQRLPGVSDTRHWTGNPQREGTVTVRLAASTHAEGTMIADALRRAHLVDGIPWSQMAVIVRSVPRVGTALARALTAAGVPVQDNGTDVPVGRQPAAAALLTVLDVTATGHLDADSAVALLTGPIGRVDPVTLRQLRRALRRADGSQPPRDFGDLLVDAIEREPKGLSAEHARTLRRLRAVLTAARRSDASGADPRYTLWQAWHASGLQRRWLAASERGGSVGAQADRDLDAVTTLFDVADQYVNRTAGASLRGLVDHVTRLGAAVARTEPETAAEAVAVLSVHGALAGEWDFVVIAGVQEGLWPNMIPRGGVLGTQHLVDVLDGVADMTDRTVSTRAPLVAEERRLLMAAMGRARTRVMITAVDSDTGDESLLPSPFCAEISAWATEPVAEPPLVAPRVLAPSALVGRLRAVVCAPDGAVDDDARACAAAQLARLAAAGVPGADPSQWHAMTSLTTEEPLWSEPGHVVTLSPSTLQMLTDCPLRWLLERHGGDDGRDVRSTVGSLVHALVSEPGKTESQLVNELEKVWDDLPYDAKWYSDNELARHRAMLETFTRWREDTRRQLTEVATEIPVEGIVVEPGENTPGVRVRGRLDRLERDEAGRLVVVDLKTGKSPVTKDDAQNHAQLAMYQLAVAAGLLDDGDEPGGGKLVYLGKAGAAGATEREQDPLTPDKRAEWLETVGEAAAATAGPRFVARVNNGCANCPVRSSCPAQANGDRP
pIC50: −log10 of the molar value.

{"Molecule": "CCn1cc(C(=O)O)c(=O)c2cc(F)c(N3CCN(C(=S)Nc4ccc(C(F)(F)F)cc4)CC3)cc21", "pIC50": 5.49}
{"Molecule": "COc1c(N2CCN(C(=S)Nc3ccc(C(F)(F)F)cc3)C(C)C2)c(F)cc2c(=O)c(C(=O)O)cn(C3CC3)c12 (stereo not shown)", "pIC50": 5.35}
{"Molecule": "O=C(O)c1cn(C2CC2)c2cc(N3CCN(C(=S)Nc4cccc(C(F)(F)F)c4)CC3)c(F)cc2c1=O", "pIC50": 4.64}
{"Molecule": "CCn1cc(C(=O)O)c(=O)c2cnc(N3CCN(C(=S)Nc4cccc(C(F)(F)F)c4)CC3)nc21", "pIC50": 5.62}
{"Molecule": "COc1c(N2CC3CCCN(C(=S)Nc4ccc(C(F)(F)F)cc4)C3C2)c(F)cc2c(=O)c(C(=O)O)cn(C3CC3)c12 (stereo not shown)", "pIC50": 5.74}
{"Molecule": "O=C(O)c1cn(C2CC2)c2cc(N3CCN(C(=S)Nc4ccc(C(F)(F)F)cc4)CC3)c(F)cc2c1=O", "pIC50": 5.18}
{"Molecule": "CCn1cc(C(=O)O)c(=O)c2cnc(N3CCN(C(=S)Nc4ccc(C(F)(F)F)cc4)CC3)nc21", "pIC50": 5.15}
{"Molecule": "CCn1cc(C(=O)O)c(=O)c2cc(F)c(N3CCN(C(=S)Nc4ccc(C(F)(F)F)cc4)C(C)C3)c(F)c21 (stereo not shown)", "pIC50": 5.51}
{"Molecule": "CCn1cc(C(=O)O)c(=O)c2cc(F)c(N3CCN(C(=S)Nc4cccc(C(F)(F)F)c4)C(C)C3)c(F)c21 (stereo not shown)", "pIC50": 5.92}
{"Molecule": "O=C(O)c1cn(-c2ccc(F)cc2)c2cc(N3CCN(C(=S)Nc4ccc(C(F)(F)F)cc4)CC3)c(F)cc2c1=O", "pIC50": 6.22}
